- tested.on: T1, hu-CD74 antigen (R&D SYSTEMS catalog #3590-CD-050) (human, UniProt P04233-2 73-232, limits assumed)
- T1 construct: Bought antigen; also called rhCD74; human CD74
- T1 sequence (looked up): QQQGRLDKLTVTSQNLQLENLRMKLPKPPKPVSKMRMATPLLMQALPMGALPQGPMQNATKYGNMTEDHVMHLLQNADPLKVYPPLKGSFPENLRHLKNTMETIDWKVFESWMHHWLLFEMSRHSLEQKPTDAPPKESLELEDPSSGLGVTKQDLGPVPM
- assay.text: SPR (Biacore T200), IgG captured on anti-human Fc, rhCD74 analyte
pKd: −log10 of the molar value.
endpoint.label: pKd

{"binder": "HC 1251_A06 (g)/LC 1337_A10 (wt) (antibody, human IgG1, kappa, V domains shown, IgG format) VH: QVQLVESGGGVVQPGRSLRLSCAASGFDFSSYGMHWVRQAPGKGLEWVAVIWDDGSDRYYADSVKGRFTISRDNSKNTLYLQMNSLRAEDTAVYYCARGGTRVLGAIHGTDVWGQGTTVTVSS VL: DIQMTQSPSSLSASVGDRVTITCRASQGISSWVAWYQQKPEKAPKSLIYGSSRLQSGVPSRFSGSGSGTDFTLTISSLQPEDFATYYCQQYNTYPLTFGGGTKVEIKR", "endpoint.label": "pKd", "observed.value": 9.73}
{"binder": "HC 1251_A06 (g)/LC 1275_C10 (wt) (antibody, human IgG1, kappa, V domains shown, IgG format) VH: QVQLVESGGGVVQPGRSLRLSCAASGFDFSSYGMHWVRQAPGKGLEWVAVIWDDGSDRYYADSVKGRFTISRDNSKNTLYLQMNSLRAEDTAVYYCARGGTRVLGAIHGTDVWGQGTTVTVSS VL: DIQMTQSPSSLSASVGDRVTITCRASQGVSSWLAWYQQKPEKAPKSLIYSARYLQSGVPSRFSGSGSGTDFTLTISSLQPEDFATYYCQQYNLYPLTFGGGTKVEIKR", "endpoint.label": "pKd", "observed.value": 9.47}
{"binder": "HC 1251_B08 (g)/LC 1337_A10 (g) (antibody, human IgG1, kappa, V domains shown, IgG format) VH: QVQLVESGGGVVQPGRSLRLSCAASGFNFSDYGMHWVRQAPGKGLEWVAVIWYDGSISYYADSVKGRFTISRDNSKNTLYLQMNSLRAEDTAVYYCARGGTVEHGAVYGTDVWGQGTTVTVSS VL: DIQMTQSPSSVSASVGDRVTITCRASQGISSWVAWYQQKPGKAPKLLIYGSSRLQSGVPSRFSGSGSGTDFTLTISSLQPEDFATYYCQQYNTYPLTFGGGTKVEIKR", "endpoint.label": "pKd", "observed.value": 9.60}
{"binder": "HC 1251_B08 (wt)/LC 1275_C10 (g) (antibody, human IgG1, kappa, V domains shown, IgG format) VH: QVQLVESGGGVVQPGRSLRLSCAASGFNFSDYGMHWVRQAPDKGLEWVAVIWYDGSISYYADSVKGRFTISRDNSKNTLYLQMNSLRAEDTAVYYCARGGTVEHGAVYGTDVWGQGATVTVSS VL: DIQMTQSPSSVSASVGDRVTITCRASQGVSSWLAWYQQKPGKAPKLLIYSARYLQSGVPSRFSGSGSGTDFTLTISSLQPEDFATYYCQQYNLYPLTFGGGTKVEIKR", "endpoint.label": "pKd", "observed.value": 9.36}
{"binder": "HC 1251_B08 (g)/LC 1275_C10 (g) (antibody, human IgG1, kappa, V domains shown, IgG format) VH: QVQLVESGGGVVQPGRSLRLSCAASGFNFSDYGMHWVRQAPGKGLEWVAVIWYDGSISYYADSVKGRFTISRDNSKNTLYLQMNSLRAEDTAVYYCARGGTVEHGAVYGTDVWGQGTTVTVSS VL: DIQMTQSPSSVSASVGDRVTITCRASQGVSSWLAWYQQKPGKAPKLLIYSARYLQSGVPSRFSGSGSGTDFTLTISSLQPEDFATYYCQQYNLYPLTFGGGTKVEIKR", "endpoint.label": "pKd", "observed.value": 9.48}
